FYI, the data here is from patent US9284306B2.

assay: in vivo; settings: male, rat, iv, 2 mg/kg
I'd be grateful if you could share measured AUC(0-inf) for these entries.
// note: answer is a bare numeric in ng·h/mL

IN: Given the entry CSC[C@@H]1CN(/N=C/c2ccc([N+](=O)[O-])o2)C(=O)O1 [S-Nifuratel, (S)-Nifuratel] , report its measured AUC(0-inf).
OUT: 167

IN: Next: CSCC1CN(/N=C/c2ccc([N+](=O)[O-])o2)C(=O)O1 (racemic) [Nifuratel racemate, Nifuratel]
OUT: 125

IN: Next: CSC[C@H]1CN(/N=C/c2ccc([N+](=O)[O-])o2)C(=O)O1 [R-nifuratel, (R)-Nifuratel]
OUT: 750
